Source listed as paper PMC5540273.

system: PLK4; details: concentration: 1 μM, replicates: in singlicate; n = 1;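 note: KINOMEscan kinase panel screen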
# reported %Inh; entries follow
Record the value in %, omitting the unit from your answer.

1) Nc1ncnc2c1ncn2-c1cccc(F)c1 :: 9
2) Fc1cccc(CSc2nnc(-c3ccc4c(c3)CCO4)o2)c1 :: 21

Query: Data request, read-out %Inh, for Nc1ncnc2c1ncn2-c1cccc2ccccc12
Reply: 0

Query: Query COc1ccc(-c2cc3c(C)nc(N)nc3n([C@H]3CC[C@H](OCCO)CC3)c2=O)cn1 next
Reply: 1

Query: Query CCC(=O)c1c(-c2ccccc2)c2cc(Cl)ccc2c(=O)n1Cc1cc(C(=O)NC2CC2)n(C)n1 next
Reply: 10

Query: Query CCS(=O)c1ccc(-c2coc3ccc(-c4nnc(C)o4)cc23)cc1 (stereo not shown) next
Reply: 5

Query: Query CCc1ccc(-c2ccc3c(c2)-c2nn(C)cc2S(=O)(=O)N3C)cc1 next
Reply: 0
